# TESTED TARGET: T1, human Fc Receptor-Like 5 (FcRL5), full length, expressed on cells (human, UniProt Q96RD9 16-977)
# T1 construct: also called CD307e; IRTA2
# T1 sequence: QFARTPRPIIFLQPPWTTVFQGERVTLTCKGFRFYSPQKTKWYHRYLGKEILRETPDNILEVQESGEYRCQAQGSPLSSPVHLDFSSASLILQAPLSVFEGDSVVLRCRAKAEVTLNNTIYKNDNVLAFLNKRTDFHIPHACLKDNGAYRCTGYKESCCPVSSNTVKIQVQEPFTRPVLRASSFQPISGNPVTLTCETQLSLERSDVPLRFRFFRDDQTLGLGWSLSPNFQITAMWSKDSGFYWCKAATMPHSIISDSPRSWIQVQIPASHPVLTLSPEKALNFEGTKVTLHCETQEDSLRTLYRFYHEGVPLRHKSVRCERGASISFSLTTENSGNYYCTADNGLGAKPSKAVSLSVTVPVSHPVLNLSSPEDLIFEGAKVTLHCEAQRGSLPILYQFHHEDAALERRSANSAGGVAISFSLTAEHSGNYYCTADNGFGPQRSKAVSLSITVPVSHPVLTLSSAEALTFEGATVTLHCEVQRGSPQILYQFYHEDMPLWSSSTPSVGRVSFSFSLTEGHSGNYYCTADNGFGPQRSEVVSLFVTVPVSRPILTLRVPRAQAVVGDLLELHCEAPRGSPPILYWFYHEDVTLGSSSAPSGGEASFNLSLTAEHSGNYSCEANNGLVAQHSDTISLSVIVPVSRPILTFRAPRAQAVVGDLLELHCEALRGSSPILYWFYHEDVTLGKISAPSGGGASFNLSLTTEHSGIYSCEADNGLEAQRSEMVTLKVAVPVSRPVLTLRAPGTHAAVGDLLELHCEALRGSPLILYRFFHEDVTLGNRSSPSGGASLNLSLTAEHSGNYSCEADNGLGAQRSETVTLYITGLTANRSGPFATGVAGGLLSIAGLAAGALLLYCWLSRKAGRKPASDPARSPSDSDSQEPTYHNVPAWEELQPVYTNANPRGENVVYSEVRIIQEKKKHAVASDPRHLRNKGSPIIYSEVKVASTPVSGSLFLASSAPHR
# METHOD SUMMARY: scFv phage: ELISA on His-tag FcRL5, flow cytometry on FcRL5-overexpressing 3T3 and Raji cells

- BINDER: "ET200-017 scFv (scFv, VL-linker-VH; screened as scFv phage clone) scFv: SYVLTQPPSVSVAPGKTARITCGGNNIGSKSVHWYQQKPGQAPVLVVYDDSDRPSGIPERFSGSNSGNTATLSISRVEAGDEADYYCQVWDSSSDHTVFGTGTKVTVLGSRGGGGSGGGGSGGGGSLEMAQVQLQQWGAGLLKPSETLSLTCAVYGGSFSGYYWSWIRQPPGKGLEWIGEINHSGSTNYNPSLKSRVTISVDTSKNQFSLKLSSVTAADTAVYYCARYYPGMDMWGQGTLVTVSS"
  binding result: "binds"
- BINDER: "ET200-012 scFv (scFv, VL-linker-VH; screened as scFv phage clone) scFv: QSVLTQPPSVSAAAGQKVTISCSGSDSNIGNNYVSWYQHLPGTAPKLLIYDVKNRPSGIPDRFSGSKSGSSATLGIAGLQPGDEADYYCGTWDSRLDAYVFGTGTKVTVLGSRGGGGSGGGGSGGGGSLEMAQMQLVQSGAEVKKPGASVKVSCKTSGFPFNIFGITWVRQAPGQGLEWMGWISGYNGNTDYPQKFQGRVTMSTDTSTSTAYMELRNLKSDDTAVYYCARGAYGGMDTWGQGTLVTVSS"
  binding result: "binds"
- BINDER: "ET200-011 scFv (scFv, VL-linker-VH; screened as scFv phage clone) scFv: QSVVTQPPSVSAAPGQRVTISCSGSSSNISIYDVSWYQQLPGTAPKLLIYGNNKRPSGIADRFSGSTSGTSATLGITGLQTGDEADYYCGTWDDSLSGGVFGGGTKLTVLGSRGGGGSGGGGSGGGGSLEMAQMQLVQSGAEVKKPGSSVKVSCEASGGTLSSYAINWVRQAPGQGLEWMGGIIPMFGTAHYAQKFQGRVTITADESTKTAYMELSSLRSEDTAVYYCARGVHYASFDHWGQGTLVTVSS"
  binding result: "binds"
